Source: patent US20040097421A1

Tested on: 27 PHTC samples from 9 patients with hematological and 18 patients with solid tumours
assay: Circumvention of melphalan resistance, FMCA classification of PHTC samples
Type: cell-based, human
assay-setup: 4 μM
Where a name gives a salt, the structure may show the parent alone.
endpoint-label: Number of samples classified EDR (extreme drug resistance)

> print(dat)
                                   compound  recorded.number
1  CCOC(=O)[C@H](Cc1ccc(F)cc1)NC(=O)[C@@H](N)Cc1ccc(N(CCCl)CCCl)cc1.Cl                1
2  CC(C)OC(=O)[C@H](Cc1ccc(F)cc1)NC(=O)[C@@H](N)Cc1ccc(N(CCCl)CCCl)cc1.Cl                1
3  CCOC(=O)[C@H](Cc1ccc(F)cc1)NC(=O)[C@H](Cc1cccc(N(CCCl)CCCl)c1)NC(=O)[C@@H]1CCCN1 [Example P2, hydrochloride]                1

----------
Tested on: panel of ten human tumour cell lines
Type: cell-based
Readings of IC50 (μM), MEAN for the listed compounds
endpoint-label: IC50 (μM), MEAN

compound	result
N.N.[Cl][Pt][Cl] [Cisplatin, cisplatin]	18.0 µM
COc1cccc2c1C(=O)c1c(O)c3c(c(O)c1C2=O)C[C@@](O)(C(=O)CO)C[C@@H]3O[C@H]1C[C@H](N)[C@H](O)[C@H](C)O1	3.51 µM
CCOC(=O)[C@H](Cc1ccccc1)NC(=O)[C@@H](N)Cc1ccc(N(CCCl)CCCl)cc1.Cl	0.48 µM
CC[C@]1(O)C[C@H]2CN(CCc3c([nH]c4ccccc34)[C@@](C(=O)OC)(c3cc4c(cc3OC)N(C=O)[C@H]3[C@@](O)(C(=O)OC)[C@H](OC(C)=O)[C@]5(CC)C=CCN6CC[C@]43[C@@H]65)C2)C1	30.1 µM
CC[C@@]1(O)C(=O)OCc2c1cc1n(c2=O)Cc2cc3c(CN(C)C)c(O)ccc3nc2-1	20.0 µM
CCOC(=O)[C@H](Cc1ccc(O)cc1)NC(=O)[C@@H](N)Cc1ccc(N(CCCl)CCCl)cc1.Cl	1.05 µM

----------
System: 27 PHTC samples from 9 patients with hematological and 18 patients with solid tumours
assay: Circumvention of melphalan resistance, FMCA classification of PHTC samples
Assay type: cell-based, human
assay-setup: 4 μM
Counter-ions that a name gives are not always drawn.
endpoint-label: Number of samples classified IDR (intermediate drug resistance)

> print(dat)
                                   compound  recorded.number
1  CC(C)OC(=O)[C@H](Cc1ccc(F)cc1)NC(=O)[C@@H](N)Cc1ccc(N(CCCl)CCCl)cc1.Cl [JV28]                2
2  CCOC(=O)[C@H](Cc1ccc(F)cc1)NC(=O)[C@H](Cc1ccc(N(CCCl)CCCl)cc1)NC(=O)[C@@H]1CCCN1.Cl [Example J3]                4
3  CCOC(=O)[C@H](Cc1ccc(F)cc1)NC(=O)[C@@H](N)Cc1ccc(N(CCCl)CCCl)cc1.Cl [Example J1]                3
4  CCOC(=O)[C@H](Cc1ccc(F)cc1)NC(=O)[C@H](Cc1cccc(N(CCCl)CCCl)c1)NC(=O)[C@@H]1CCCN1 [Example P2, hydrochloride]                4

----------
Test system: 8226S (myeloma RPMI 8226)
assay: cells
Format: cell-based, human
assay-setup: read-out: IC50 (μM), 8226S
Where a name gives a salt, the structure may show the parent alone.
endpoint-label: IC50 (µM)

> print(dat)
                                   compound  endpoint.label  recorded.number
1  CCOC(=O)[C@H](Cc1ccc(N(CCCl)CCCl)cc1)NC(=O)[C@@H](N)Cc1ccc(N(CCCl)CCCl)cc1 [JV27, hydrochloride]            IC50             1.01
